Where these numbers come from: patent US20090155209A1

Catalogue of pEC50 readings, one per entry.
target: NS3-NS4 (Hepatitis C virus genotype 1a, UniProt P27958); experiment: cell-based; conditions: EC50, NS3-NS4 activity
Sequence (P27958 1027-1657): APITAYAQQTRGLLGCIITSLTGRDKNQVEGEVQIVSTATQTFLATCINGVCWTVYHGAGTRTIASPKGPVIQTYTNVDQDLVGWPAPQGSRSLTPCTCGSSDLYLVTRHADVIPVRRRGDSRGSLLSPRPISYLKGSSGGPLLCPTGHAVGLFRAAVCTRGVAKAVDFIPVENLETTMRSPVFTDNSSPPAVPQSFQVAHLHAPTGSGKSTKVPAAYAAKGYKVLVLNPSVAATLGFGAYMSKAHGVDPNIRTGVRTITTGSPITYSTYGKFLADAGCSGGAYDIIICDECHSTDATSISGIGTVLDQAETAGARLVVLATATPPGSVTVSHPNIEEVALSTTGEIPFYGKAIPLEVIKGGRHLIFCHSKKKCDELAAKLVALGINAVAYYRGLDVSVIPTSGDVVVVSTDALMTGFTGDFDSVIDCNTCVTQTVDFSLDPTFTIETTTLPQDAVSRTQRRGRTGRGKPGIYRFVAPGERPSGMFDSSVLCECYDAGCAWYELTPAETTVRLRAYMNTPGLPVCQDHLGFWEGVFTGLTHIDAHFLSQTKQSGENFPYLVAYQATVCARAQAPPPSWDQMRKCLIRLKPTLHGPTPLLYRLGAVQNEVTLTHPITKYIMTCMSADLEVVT
Sequence (P27958 1658-1711): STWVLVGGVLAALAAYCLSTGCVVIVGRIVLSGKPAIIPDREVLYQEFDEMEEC
pEC50: −log10 of the molar value.

Molecule	pEC50
CCC(C)(C)OC(=O)N[C@H]1CCCCC/C=C\[C@@H]2C[C@@]2(C(=O)NS(=O)(=O)C2CC2)NC(=O)[C@@H]2C[C@@H](OC(=O)N3Cc4cccc(F)c4C3)CN2C1=O [Compound 431]	> 7.00
CC(C)Oc1ccc(S(=O)(=O)NC(=O)[C@@]23C[C@H]2/C=C\CCCCC[C@H](NC(=O)OC(C)(C)C)C(=O)N2C[C@H](OC(=O)N4Cc5cccc(F)c5C4)C[C@H]2C(=O)N3)cc1 [Compound 356]	> 7.00
CC(C)(C)OC(=O)N[C@H]1CCCCC/C=C\[C@@H]2C[C@@]2(C(=O)NS(=O)(=O)c2ccc(F)c(F)c2)NC(=O)[C@@H]2C[C@@H](OC(=O)N3Cc4cccc(F)c4C3)CN2C1=O [Compound 315]	> 7.00
CC(C)(C)OC(=O)N[C@H]1CCCCC/C=C\[C@@H]2C[C@@]2(C(=O)NOc2ccc(-c3ccccc3)cc2)NC(=O)[C@@H]2C[C@@H](OC(=O)N3Cc4cccc(F)c4C3)CN2C1=O [Compound 710]	5.00 to 6.00
CC(C)(C)ONC(=O)[C@@]12C[C@H]1CCCCCCC[C@H](NC(=O)OC(C)(C)C)C(=O)N1C[C@H](OC(=O)N3Cc4cccc(F)c4C3)C[C@H]1C(=O)N2 [Compound 815]	> 7.00
O=C1N[C@]2(C(=O)NS(=O)(=O)C3CC3)C[C@H]2/C=C\CCCCC[C@H](Nc2nc(-c3cccc(F)c3)cs2)C(=O)N2C[C@H](OC(=O)N3Cc4cccc(F)c4C3)C[C@@H]12 [Compound 215]	> 7.00
COCC1(S(=O)(=O)NC(=O)[C@@]23C[C@H]2CCCCCCC[C@H](NC(=O)OC(C)(C)C)C(=O)N2C[C@H](OC(=O)N4Cc5cccc(F)c5C4)C[C@H]2C(=O)N3)CC1 [Compound 652]	> 7.00
CC(C)(C)OC(=O)N[C@H]1CCCCC/C=C\[C@@H]2C[C@@]2(C(=O)NS(=O)(=O)c2ccc(C(F)(F)F)cc2)NC(=O)[C@@H]2C[C@@H](OC(=O)N3Cc4cccc(F)c4C3)CN2C1=O [Compound 347]	> 7.00
CC(C)(C)OC(=O)N[C@H]1CCCCC/C=C\[C@@H]2C[C@@]2(C(=O)NOCc2ccc(C(F)(F)F)cc2)NC(=O)[C@@H]2C[C@@H](OC(=O)N3Cc4cccc(F)c4C3)CN2C1=O [Compound 105]	4.30 to 5.00
O=C1N[C@]2(C(=O)NS(=O)(=O)C3CC3)C[C@H]2/C=C\CCCCC[C@H](Nc2nc(-c3ccc(F)cn3)cs2)C(=O)N2C[C@H](OC(=O)N3Cc4cccc(F)c4C3)C[C@@H]12 [Compound 225]	> 7.00
Cc1ccccc1S(=O)(=O)NC(=O)[C@@]12C[C@H]1/C=C\CCOCC[C@H](NC(=O)OC(C)(C)C)C(=O)N1C[C@H](OC(=O)N3Cc4cccc(Cl)c4C3)C[C@H]1C(=O)N2 [Compound 321]	> 7.00
O=C1N[C@]2(C(=O)NS(=O)(=O)C3CC3)C[C@H]2/C=C\CCCCC[C@H](Nc2nc(-c3ccc(F)cn3)cs2)C(=O)N2C[C@H](OC(=O)N3Cc4cccc(Cl)c4C3)C[C@@H]12 [Compound 228]	> 7.00
CC(C)(C)OC(=O)N[C@H]1CCCCC/C=C\[C@@H]2C[C@@]2(C(=O)NS(=O)(=O)c2ccccc2C(F)(F)F)NC(=O)[C@@H]2C[C@@H](OC(=O)N3Cc4cccc(F)c4C3)CN2C1=O [Compound 345]	> 7.00
CC(C)(C)OC(=O)N[C@H]1CCCCCCC[C@@H]2C[C@@]2(C(=O)NOc2ccc(Cl)cc2)NC(=O)[C@@H]2C[C@@H](OC(=O)N3Cc4cccc(F)c4C3)CN2C1=O [Compound 809]	5.00 to 6.00
Cc1ccc(C)c(ONC(=O)[C@@]23C[C@H]2CCCCCCC[C@H](NC(=O)OC(C)(C)C)C(=O)N2C[C@H](OC(=O)N4Cc5cccc(F)c5C4)C[C@H]2C(=O)N3)c1 [Compound 806]	5.00 to 6.00
CC(C)(C)OC(=O)N[C@H]1CCCCC/C=C\[C@@H]2C[C@@]2(C(=O)NS(=O)(=O)c2ccc(Cl)s2)NC(=O)[C@@H]2C[C@@H](OC(=O)N3Cc4cccc(F)c4C3)CN2C1=O [Compound 323]	> 7.00
Cc1ccc(ONC(=O)[C@@]23C[C@H]2CCCCCCC[C@H](NC(=O)OC(C)(C)C)C(=O)N2C[C@H](OC(=O)N4Cc5cccc(F)c5C4)C[C@H]2C(=O)N3)cc1 [Compound 808]	5.00 to 6.00
CCC(C)(C)OC(=O)N[C@H]1CCCCC/C=C\[C@@H]2C[C@@]2(C(=O)NS(=O)(=O)c2cc(Cl)sc2Cl)NC(=O)[C@@H]2C[C@@H](OC(=O)N3Cc4cccc(F)c4C3)CN2C1=O [Compound 344]	> 7.00
CC(=O)O[C@@H]1C[C@H]2C(=O)N[C@]3(C(=O)NS(=O)(=O)C4CC4)C[C@H]3/C=C\CCCCC[C@H](Nc3nc(-c4ccc(F)cc4)cs3)C(=O)N2C1 [Compound 233]	6.00 to 7.00
